Test system: L5178Y
procedure.details: Cytotoxicity against mouse L5178Y cells assessed as reduction in cell viability by MTT assay
Type: functional, cell-based
Each item that follows carries a reported pIC50.
Give only the number. pIC50 is defined as minus log10 of concentration in molar units.

Solved cases (3 shown):
• CC(C)(C)c1ccc(OCCCCN2CCN(c3ncccn3)CC2)cc1 = 4.68
• CC(=O)c1ccc(OCCCCN2CCN(c3ccccn3)CC2)cc1 = 4.20
• CCC(C)(C)c1ccc(OCCCCN2CCN(c3cccnc3)CC2)cc1 = 5.03

Now for another entry.
Prompt: Entry CC(C)(C)c1ccc(OCCCN2CCN(c3ncccn3)CC2)cc1 , system L5178Y: what pIC50 was measured?
Completion: 4.39
